List of shrunken log2 fold change values.
# System: Escherichia coli TOP10;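 further: peptides expressed intracellularly from a pBAD plasmid library in pooled LB shake-flask culture, induced with 0.3% L-arabinose, DNA abundance read by NGS, three biological replicates, DESeq2 with apeglm shrinkage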
# experimental-details: shrunken log2 fold change of peptide-encoding DNA abundance (4.5 h post-induction vs induction); higher = less antimicrobial activity (less host growth inhibition)
# run-conditions: time post-induction: 4.5 h; library: site-saturation at positions 5, 18, 19, 20
Reply with just the number.

Solved cases (5 shown):
| sequence-entry | target-entity | readout-kind | meas-value |
| --- | --- | --- | --- |
| RRIRKRPPRLPRPRPRPWWGPRP | Escherichia coli TOP10 | shrunken log2 fold change | 0.0849 |
| RRIRCRPPRLPRPRPRPYHIPRP | Escherichia coli TOP10 | shrunken log2 fold change | -0.27 |
| RRIRTRPPRLPRPRPRPADRPRP | Escherichia coli TOP10 | shrunken log2 fold change | -0.108 |
| RRIRARPPRLPRPRPRPYPKPRP | Escherichia coli TOP10 | shrunken log2 fold change | -0.149 |
| RRIRDRPPRLPRPRPRPDVDPRP | Escherichia coli TOP10 | shrunken log2 fold change | 0.0482 |

Recorded shrunken log2 fold change (sequence RRIRVRPPRLPRPRPRPCPGPRP ): 0.00413

Recorded shrunken log2 fold change (sequence RRIRNRPPRLPRPRPRPVELPRP ): -0.0081

Recorded shrunken log2 fold change (sequence RRIRTRPPRLPRPRPRPRCRPRP ): 0.158

Recorded shrunken log2 fold change (sequence RRIRSRPPRLPRPRPRPVSPPRP ): 0.155

Recorded shrunken log2 fold change (sequence RRIRNRPPRLPRPRPRPMRYPRP ): -0.154

Recorded shrunken log2 fold change (sequence RRIRYRPPRLPRPRPRPMGWPRP ): -0.134

Recorded shrunken log2 fold change (sequence RRIRCRPPRLPRPRPRPSRHPRP ): -0.33

Recorded shrunken log2 fold change (sequence RRIRLRPPRLPRPRPRPKSEPRP ): 0.0422

Recorded shrunken log2 fold change (sequence RRIRKRPPRLPRPRPRPNWFPRP ): 0.188

Recorded shrunken log2 fold change (sequence RRIRMRPPRLPRPRPRPVQTPRP ): 0.0257
